test system: Blood; experiment: Inhibition of LPS-induced TNFalpha production in human whole blood preincubated for 1 hrs before LPS challenge measured after 4 hrs by ELISA; assay type: functional, tissue-based
quantity.kind: IC50 (µM)

Cc1cc(COc2ccc(S(=O)(=O)C3(C(=O)NO)CCN(C=O)CC3)cc2)c2ccccc2n1 :: 1.3
CC#CCOc1ccc(S(=O)(=O)CC2(C(=O)NO)CCN(C(=O)c3ccccc3)CC2)cc1 :: 2.5
CCNC(=O)N1CCC(C(=O)NO)(S(=O)(=O)c2ccc(OCc3cc(C)nc4ccccc34)cc2)CC1 :: 2.5
Cc1cc(COc2ccc(S(=O)(=O)C3(C(=O)NO)CCN(C(=O)C(C)C)CC3)cc2)c2ccccc2n1 :: 14
CC#CCOc1ccc(S(=O)(=O)CC2(C(=O)NO)CCN(C(C)=O)CC2)cc1 :: 8.7
Cc1cc(COc2ccc(S(=O)(=O)C3(C(=O)NO)CCN(C(=O)c4ccncc4)CC3)cc2)c2ccccc2n1 :: 1.9
Cc1cc(COc2ccc(S(=O)(=O)C3(C(=O)NO)CCN(C(=O)c4ccccc4)CC3)cc2)c2ccccc2n1 :: 28
Cc1cc(COc2ccc(S(=O)(=O)C3(C(=O)NO)CCN(Cc4ccncc4)CC3)cc2)c2ccccc2n1 :: 11
Cc1cc(COc2ccc(S(=O)(=O)C3(C(=O)NO)CCN(C)CC3)cc2)c2ccccc2n1 :: 2.4

----------
tested on: Blood; experiment: Inhibition of LPS-induced TNFalpha production in human whole blood preincubated for 1 hrs before LPS challenge measured after 4 hrs by ELISA; type: functional, tissue-based
Listed below: IC50 values for each entry.
quantity.kind: IC50

Cc1cc(COc2ccc(S(=O)(=O)C3(C(=O)NO)CCN(Cc4ccc(Cl)c(Cl)c4)CC3)cc2)c2ccccc2n1 :: > 50 µM
CCN(CC)C(=O)N1CCC(C(=O)NO)(S(=O)(=O)c2ccc(OCc3cc(C)nc4ccccc34)cc2)CC1 :: > 50 µM
Cc1cc(COc2ccc(S(=O)(=O)C3(C(=O)NO)CCN(C(=O)OC(C)(C)C)CC3)cc2)c2ccccc2n1 :: > 50 µM
